Entries and their measured EC50 follow.
- Organism: Cavia porcellus
- Assay summary: Positive inotropic activity in spontaneously beating guinea pig atria
- Type: functional, organism-based

| Compound | Limit sign | EC50 (µg/mL) |
| --- | --- | --- |
| C=C[C@@]1(C)CC(=O)[C@]2(O)C3(C)C(C(O)C(OC(=O)CNC(C)(C)C)[C@@]2(C)O1)C(C)(C)CC[C@@H]3O.Cl (stereo partly drawn) | > | 30 |
| C=C[C@@]1(C)CC(=O)[C@]2(O)C3(C)C(C(O)C(OC(=O)CNC(=O)OC(C)(C)C)[C@@]2(C)O1)C(C)(C)CC[C@@H]3O (stereo partly drawn) | = | 9.2 |
| C=C[C@@]1(C)CC(=O)[C@]2(O)[C@@]3(C)[C@@H](O)CCC(C)(C)[C@@H]3[C@H](O)[C@H](OC(C)=O)[C@@]2(C)O1 [COLFORSIN] | = | 0.02 |
| C=C[C@@]1(C)CC(=O)[C@]2(O)C3(C)C(C(OC(=O)Cn4cnc5c4c(=O)n(C)c(=O)n5C)C(O)[C@@]2(C)O1)C(C)(C)CC[C@@H]3O (stereo partly drawn) | = | 3 |
| C=C[C@@]1(C)CC(=O)[C@]2(O)C3(C)C(C(OC(=O)CN4CCCCC4)C(O)[C@@]2(C)O1)C(C)(C)CC[C@@H]3O.Cl (stereo partly drawn) | = | 1.8 |
| C=C[C@@]1(C)CC(=O)[C@]2(O)C3(C)C(C(O)C(OC(=O)CN4CCC(O)CC4)[C@@]2(C)O1)C(C)(C)CC[C@@H]3O.Cl (stereo partly drawn) | > | 30 |
| C=C[C@@]1(C)CC(=O)[C@]2(O)C3(C)C(C(O)C(OC(=O)CN4CCSCC4)[C@@]2(C)O1)C(C)(C)CC[C@@H]3O.Cl (stereo partly drawn) | > | 30 |
| C=C[C@@]1(C)CC(=O)[C@]2(O)C3(C)C(C(OC(=O)CCCCN4CCCCC4)C(O)[C@@]2(C)O1)C(C)(C)CC[C@@H]3O.Cl (stereo partly drawn) | > | 30 |
| C=C[C@@]1(C)CC(=O)[C@]2(O)C3(C)C(C(O)C(OC(=O)CN4CCCC4)[C@@]2(C)O1)C(C)(C)CC[C@@H]3O.Cl (stereo partly drawn) | = | 1.8 |
| C=C[C@@]1(C)CC(=O)[C@]2(O)C3(C)C(C(OC(=O)CN4CCCC4)C(O)[C@@]2(C)O1)C(C)(C)CC[C@@H]3O.Cl (stereo partly drawn) | = | 3 |
| C=C[C@@]1(C)CC(=O)[C@]2(O)C3(C)C(C(O)C(OC(=O)CN(CC)CC)[C@@]2(C)O1)C(C)(C)CC[C@@H]3O.Cl (stereo partly drawn) | = | 10 |
| C=C[C@@]1(C)CC(=O)[C@]2(O)C3(C)C(C(O)C(OC(=O)CN4CCC(C)CC4)[C@@]2(C)O1)C(C)(C)CC[C@@H]3O.Cl (stereo partly drawn) | > | 30 |
| C=C[C@@]1(C)CC(=O)[C@]2(O)C3(C)C(C(OC(=O)CN4CCSCC4)C(O)[C@@]2(C)O1)C(C)(C)CC[C@@H]3O.Cl (stereo partly drawn) | = | 1.5 |

---

- Organism: Cavia porcellus
- Assay summary: Positive inotropic activity in spontaneously beating guinea pig atria
- Assay type: functional, organism-based

| Compound | Result units | Limit sign | EC50 |
| --- | --- | --- | --- |
| C=C[C@@]1(C)CC(=O)[C@]2(O)C3(C)C(C(OC(=O)CN4CCC(O)CC4)C(O)[C@@]2(C)O1)C(C)(C)CC[C@@H]3O.Cl (stereo partly drawn) | µg/mL | = | 3 |
| C=C[C@@]1(C)CC(=O)[C@]2(O)C3(C)C(C(O)C(OC(=O)C(C)(C)N4CCOCC4)[C@@]2(C)O1)C(C)(C)CC[C@@H]3O.Cl (stereo partly drawn) | µg/mL | = | 3 |
| C=C[C@@]1(C)CC(=O)[C@]2(O)C3(C)C(C(O)C(OC(=O)Cn4c(=O)c5c(ncn5COCCOC)n(C)c4=O)[C@@]2(C)O1)C(C)(C)CC[C@@H]3O (stereo partly drawn) | µg/mL | = | 2 |
| C=C[C@@]1(C)CC(=O)[C@]2(O)C3(C)C(C(OC(=O)CCN4CCCCC4)C(O)[C@@]2(C)O1)C(C)(C)CC[C@@H]3O.Cl (stereo partly drawn) | µg/mL | = | 0.5 |
| C=C[C@@]1(C)CC(=O)[C@]2(O)C3(C)C(C(OC(=O)CN4CCC(NC(=O)c5ccccc5)CC4)C(O)[C@@]2(C)O1)C(C)(C)CC[C@@H]3O (stereo partly drawn) | µg/mL | = | 1.2 |
| C=C[C@@]1(C)CC(=O)[C@]2(O)C3(C)C(C(O)C(OC(=O)CNc4ccccc4)[C@@]2(C)O1)C(C)(C)CC[C@@H]3O (stereo partly drawn) | µg/mL | > | 10 |
| C=C[C@@]1(C)CC(=O)[C@]2(O)C3(C)C(C(OC(=O)CN4CCC(C)CC4)C(O)[C@@]2(C)O1)C(C)(C)CC[C@@H]3O.Cl (stereo partly drawn) | µg/mL | = | 2.6 |
| C=C[C@@]1(C)CC(=O)[C@]2(O)C3(C)C(C(O)C(OC(=O)Cn4cnc5c4c(=O)n(C)c(=O)n5C)[C@@]2(C)O1)C(C)(C)CC[C@@H]3O (stereo partly drawn) | µg/mL | = | 0.74 |
| C=C[C@@]1(C)CC(=O)[C@]2(O)C3(C)C(C(O)C(OC(=O)Cn4nnc5ccccc54)[C@@]2(C)O1)C(C)(C)CC[C@@H]3O (stereo partly drawn) | µg/mL | > | 30 |
| C=C[C@@]1(C)CC(=O)[C@]2(O)C3(C)C(C(OC(=O)CN4CCCC(C)C4)C(O)[C@@]2(C)O1)C(C)(C)CC[C@@H]3O.Cl (stereo partly drawn) | µg/mL | > | 30 |
| C=C[C@@]1(C)CC(=O)[C@]2(O)C3(C)C(C(O)C(OC(=O)CCCN4CCOCC4)[C@@]2(C)O1)C(C)(C)CC[C@@H]3O.Cl (stereo partly drawn) | µg/mL | = | 10 |
| C=C[C@@]1(C)CC(=O)[C@]2(O)C3(C)C(C(O)C(OC(=O)C(C)N4CCOCC4)[C@@]2(C)O1)C(C)(C)CC[C@@H]3O.Cl (stereo partly drawn) | µg/mL | = | 0.27 |
| C=C[C@@]1(C)CC(=O)[C@]2(O)C3(C)C(C(OC(=O)CNCc4ccccc4)C(O)[C@@]2(C)O1)C(C)(C)CC[C@@H]3O.Cl (stereo partly drawn) | µg/mL | = | 10 |
